Where do these numbers come from? They come from patent US20220177587A1.

target: huPD-L1 (Homo sapiens, UniProt Q9NZQ7); assay: Flow binding to CHO cells stably expressing PD-L1; parameters: huCTLA4 and huPD-L1, full-length mammalian surface expression constructs were generated; expressed in transfected cells; host or cells: CHO cells, lentiviral transduction, sorted to >98% purity; details: Table E11; 33.3 nM; listed as WT CD80 ECD-Fc = 1.0
Sequence (Q9NZQ7 19-290): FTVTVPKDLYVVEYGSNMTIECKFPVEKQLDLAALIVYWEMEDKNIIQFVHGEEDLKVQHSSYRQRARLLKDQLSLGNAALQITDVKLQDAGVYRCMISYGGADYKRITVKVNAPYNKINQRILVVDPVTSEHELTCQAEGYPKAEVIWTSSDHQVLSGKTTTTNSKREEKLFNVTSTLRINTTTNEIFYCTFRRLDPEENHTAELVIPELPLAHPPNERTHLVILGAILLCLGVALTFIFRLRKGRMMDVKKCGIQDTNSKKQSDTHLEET
I would appreciate it if you labelled entries Satisfied when PD-L1 Fold change to WT CD80 is 300 or higher, otherwise Not satisfied.

>>> class_assignment("T13R/Q33L/E35D/M47V/T62S/V68M/L85M (protein, UniProt P33681 35-288, looked up, variant T13R Q33L E35D M47V T62S V68M L85M) T-lymphocyte activation …: VIHVTKEVKEVARLSCGHNVSVEELAQTRIYWLKDKKMVLTMMSGDVNIWPEYKNRTIFDISNNLSIMILALRPSDEGTYECVVMKYEKDAFKREHLAEVTLSVKADFPTPSISDFEIPTSNIRRIICSTSGGFPEPHLSWLENGEELNAINTTVSQDPETELYAVSSKLDFNMTTNHSFMCLIKYGHLRVNQTFNWNTTKQEHFPDNLLPSWAITLISVNGIFVICCLTYCFAPRCRERRRNERLRRESVRPV")
"Not satisfied"
>>> class_assignment("T13R/Q33R/E35D/M47L/V68M (protein, CD80 v381 ECD) VIHVTKEVKEVARLSCGHNVSVEELAQTRIYWRKDKKMVLTMMSGDLNIWPEYKNRTIFDITNNLSIMILALRPSDEGTYECVVLKYEKDAFKREHLAEVTLSVKADFPTPSISDFETPTSNIRRIICSTSGGFPEPHLSWLENGEELNAINTTVSQDPETELYAVSSKLDFNMTTNHSFMCLIKYGHLRVNQTFNWNTTKQEHFPDN")
"Not satisfied"
>>> class_assignment("T13R/Q33R/E35D/M38I/M47L/V68M/E95V/L97Q (protein, UniProt P33681 35-288, looked up, variant T13R Q33R E35D M38I M47L V68M E95V L97Q) T-lymphocyte activation …: VIHVTKEVKEVARLSCGHNVSVEELAQTRIYWRKDKKIVLTMMSGDLNIWPEYKNRTIFDITNNLSIMILALRPSDEGTYECVVLKYEKDAFKRVHQAEVTLSVKADFPTPSISDFEIPTSNIRRIICSTSGGFPEPHLSWLENGEELNAINTTVSQDPETELYAVSSKLDFNMTTNHSFMCLIKYGHLRVNQTFNWNTTKQEHFPDNLLPSWAITLISVNGIFVICCLTYCFAPRCRERRRNERLRRESVRPV")
"Satisfied"
>>> class_assignment("T13R/Q33L/E35D/M47L/V68M/L85M (protein, UniProt P33681 35-288, looked up, variant T13R Q33L E35D M47L V68M L85M) T-lymphocyte activation …: VIHVTKEVKEVARLSCGHNVSVEELAQTRIYWLKDKKMVLTMMSGDLNIWPEYKNRTIFDITNNLSIMILALRPSDEGTYECVVMKYEKDAFKREHLAEVTLSVKADFPTPSISDFEIPTSNIRRIICSTSGGFPEPHLSWLENGEELNAINTTVSQDPETELYAVSSKLDFNMTTNHSFMCLIKYGHLRVNQTFNWNTTKQEHFPDNLLPSWAITLISVNGIFVICCLTYCFAPRCRERRRNERLRRESVRPV")
"Not satisfied"
>>> class_assignment("T13R/Q33R/E35D/M47L/V68M/L85M (protein, CD80 v382 ECD) VIHVTKEVKEVARLSCGHNVSVEELAQTRIYWRKDKKMVLTMMSGDLNIWPEYKNRTIFDITNNLSIMILALRPSDEGTYECVVMKYEKDAFKREHLAEVTLSVKADFPTPSISDFETPTSNIRRIICSTSGGFPEPHLSWLENGEELNAINTTVSQDPETELYAVSSKLDFNMTTNHSFMCLIKYGHLRVNQTFNWNTTKQEHFPDN")
"Satisfied"
